# TEST: blockers of STAT3 transcriptional signaling – U3A cells, luciferase, luminescence, MLSCN library, primary screen (AID 862);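 also: 0% = DMSO only wells and 100% = 100 µM nifuroxazide control wells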
# CONDITION_LABEL: IL-6 STAT3-luciferase reporter, at 5.5 µM, stronger effect = higher value, host cell line lacks STAT1
In all, about 190,000 compounds went through this assay and about 1,700 (0.89%) were called active. This is one part of a sample in which actives are shown more often than they occur.
RECORDED_ENDPOINT: inhibition

Sample records with inhibition:
- CCSc1nnc(NC(=O)Cc2ccccc2OC)s1: 1.7% (inactive)
- CCOC(=O)C(=Cc1ccccc1OC)C(=O)OCC: 9.9% (inactive)
- S=c1[nH]nc(/C=C/c2ccccc2)o1: -4.3% (inactive)

(Q) Item under review: O=C(Nc1nc(-c2ccc3c(c2)OCO3)cs1)c1ccncc1 . Reported inhibition?
(A) 64.6% (active)

(Q) Item under review: CN(C)S(=O)(=O)c1cccc(NC(=S)N/N=C/C(=O)c2ccccc2)c1 . Reported inhibition?
(A) 8% (inactive)

(Q) Item under review: COc1ccc(C)cc1NC(=O)NCc1ccccn1 . Reported inhibition?
(A) 15% (inactive)

(Q) Item under review: Cc1ccc(-c2csc(NC(=O)c3cnccn3)n2)cc1C . Reported inhibition?
(A) 15.5% (inactive)

---

# TEST: blockers of STAT3 transcriptional signaling – U3A cells, luciferase, luminescence, MLSCN library, primary screen (AID 862);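 also: 0% = DMSO only wells and 100% = 100 µM nifuroxazide control wells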
# CONDITION_LABEL: IL-6 STAT3-luciferase reporter, at 5.5 µM, stronger effect = higher value, host cell line lacks STAT1
Among all 190,000 compounds or so, about 1,700 (0.89%) were called active. Only a selection was taken, and actives are over-represented in it overall.
RECORDED_ENDPOINT: inhibition (%)
Give the value, in units of %, as a plain number.

* COc1cc(OC)cc(C(=O)Nc2ccc(S(=O)(=O)Nc3cc(C)on3)cc2)c1 | 20.2
* Cn1c(-c2ccco2)nc2cc3ccccc3cc21 | 79.1
* Cc1cccc(NC(=O)c2cc([N+](=O)[O-])ccc2N2CCN(C)CC2)c1 | 6.2
* O=C(Nc1ccc(N2CCN(C(=O)c3cccs3)CC2)cc1)c1cccnc1Cl | 1.7

(Q) Item under review: COc1cc(/C=N/NC(=O)c2ccccc2)ccc1OS(=O)(=O)c1ccccc1 . Reported inhibition?
(A) 1.7

(Q) Item under review: Cn1c(N)c(C(=O)COC(=O)/C=C/c2ccc(OC(F)F)cc2)c(=O)n(C)c1=O . Reported inhibition?
(A) 26.3

(Q) Item under review: COc1ccc(/C=C/C(=O)c2ccc(NS(=O)(=O)c3ccc(C)cc3)cc2)cc1O . Reported inhibition?
(A) -5.1

(Q) Item under review: O=C(CCc1ccccc1)NCCc1cccs1 . Reported inhibition?
(A) 4.7

(Q) Item under review: CN1c2ccccc2-c2nc3ccccc3n2C1c1ccco1 (stereo not given) . Reported inhibition?
(A) 14

(Q) Item under review: COc1ccc(C(=O)Nc2ccccc2C(=O)N/N=C/c2ccc(O)c(OC)c2)cc1 . Reported inhibition?
(A) 106

---

Some compounds, each annotated with its measured inhibition.
# TEST: blockers of STAT3 transcriptional signaling – U3A cells, luciferase, luminescence, MLSCN library, primary screen (AID 862);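 also: 0% = DMSO only wells and 100% = 100 µM nifuroxazide control wells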
# CONDITION_LABEL: IL-6 STAT3-luciferase reporter, at 5.5 µM, stronger effect = higher value, host cell line lacks STAT1
About 1,700 (0.89%) of roughly 190,000 compounds were called active. For the sample, actives were picked, then their nearest neighbours and some compounds at random.
Give the value, in units of %, as a plain number.

Sample records with inhibition:
• CCN(CCn1cccn1)Cc1nc(-c2ccc(C(=O)OC)cc2)no1 = 7.7
• O=C(NCc1ccccc1Cl)C1CCN(S(=O)(=O)N2CCOCC2)CC1 = 2.3
• Cc1cc[n+](-c2[nH]c(=O)sc2/C=N/NC(=O)c2ccccc2[O-])cc1C = 6.7

(Q) Item under review: O=C(CC(O)(C(F)(F)F)C(F)(F)F)Nc1ccc(Cl)c(Cl)c1 . Reported inhibition?
(A) 65.1

(Q) Item under review: CN(C)CCNC(CC(=O)Nc1ccc(Cl)c(Cl)c1)C(=O)O (stereo unspecified) . Reported inhibition?
(A) 5.8

(Q) Item under review: Cc1cccc(C(=O)N2CCCN(C(=O)c3cccc(C)c3)CC2)c1 . Reported inhibition?
(A) 3.3

(Q) Item under review: CC(C)N(C(=O)CSc1nc(COc2ccccc2)nc2ccccc12)C(C)C . Reported inhibition?
(A) 10.8

(Q) Item under review: CCc1cc(-c2n[nH]c(=S)n2CC(C)C)cs1 . Reported inhibition?
(A) 5

---

# TEST: blockers of STAT3 transcriptional signaling – U3A cells, luciferase, luminescence, MLSCN library, primary screen (AID 862);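 also: 0% = DMSO only wells and 100% = 100 µM nifuroxazide control wells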
# CONDITION_LABEL: IL-6 STAT3-luciferase reporter, at 5.5 µM, stronger effect = higher value, host cell line lacks STAT1
Out of some 190,000 compounds screened, about 1,700 (0.89%) were called active. This excerpt belongs to a sample that is enriched for actives.
Some compounds, each annotated with its measured inhibition.
Give the value, in units of %, as a plain number.

* O=c1c2c(nc3n1CCCCC3)sc1c(O)cccc12 | 64.8
* Cc1ccc(NC(=O)Cn2nc(C)c3ccccc3c2=O)c(C)c1 | 9.7
* COc1ccc(-c2nn(C)c(=O)c3ccccc23)cc1NC(=O)COc1ccccc1 | 38.1

(Q) Item under review: Cn1ccc(=NC=C(C#N)C#N)c2ccccc21 . Reported inhibition?
(A) 1.3

(Q) Item under review: O=c1c2ccccc2nc2n1C1(CCCCC1)Cc1ccccc1-2 . Reported inhibition?
(A) -3.8

(Q) Item under review: O=C(c1ccc(F)cc1)c1cn(Cc2ccc(F)cc2)c2cc3c(cc2c1=O)OCCO3 . Reported inhibition?
(A) 4.1

---

# TEST: blockers of STAT3 transcriptional signaling – U3A cells, luciferase, luminescence, MLSCN library, primary screen (AID 862);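 also: 0% = DMSO only wells and 100% = 100 µM nifuroxazide control wells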
# CONDITION_LABEL: IL-6 STAT3-luciferase reporter, at 5.5 µM, stronger effect = higher value, host cell line lacks STAT1
In all, about 190,000 compounds went through this assay and about 1,700 (0.89%) were called active. The sample holds actives, similar compounds and a random draw of the others, so the mix is not that of the screen.
Some compounds, each annotated with its measured inhibition.
Give the value, in units of %, as a plain number.

Sample records with inhibition:
- Cc1ccc(CN(C)CC(=O)Nc2cccc([N+](=O)[O-])c2)o1: 5.5
- Cc1nc(CNS(=O)(=O)c2ccc(Oc3ccccc3)cc2)cs1: 54
- O=C(Cc1ccccc1)N1CCN(S(=O)(=O)c2ccc([N+](=O)[O-])cc2)CC1: -1.6
- O=[N+]([O-])c1cc(S(=O)(=O)N2CCCC2)ccc1NN=C1CCCC1: 8.3
- CC(C)Cn1c(N)c(C(=O)COC(=O)CN2C(=O)C3CC=CCC3C2=O)c(=O)n(C)c1=O (stereo unspecified): 30.1
- Nc1ccc(-c2nnc(-c3ccc(-c4ccccc4)cc3)o2)cc1: -2.7
- CN(CC(=O)Nc1cccc(F)c1)CC(=O)Nc1cccc([N+](=O)[O-])c1: -4.2
- Cc1ccc(C(=O)Cc2nnc(C)s2)cc1: -4.3

(Q) Item under review: Cc1cc(CNC(=O)c2cccc([N+](=O)[O-])c2)c2ccccc2n1 . Reported inhibition?
(A) 12.3

(Q) Item under review: Cc1nc(CNS(=O)(=O)c2cccnc2)cs1 . Reported inhibition?
(A) 5.7

(Q) Item under review: O=C(Nc1ccccc1C(=O)N1CCOCC1)c1ccc(CSc2ccccc2)cc1 . Reported inhibition?
(A) 24

(Q) Item under review: CCCc1cc(=O)[nH]c(SCC(=O)c2cc(C)n(CCC)c2C)n1 . Reported inhibition?
(A) 10.6

(Q) Item under review: COc1ccc(C(=O)Nc2ccc(CN3CCOCC3)cc2)cc1 . Reported inhibition?
(A) -2.1

(Q) Item under review: CCCCn1c(N)c(N(CC)C(=O)/C=C/c2ccco2)c(=O)[nH]c1=O . Reported inhibition?
(A) -5.6

(Q) Item under review: Cc1cc(F)ccc1S(=O)(=O)Nc1ncnc2scc(-c3ccc(F)cc3)c12 . Reported inhibition?
(A) -1.8

(Q) Item under review: O=C(Nc1nc2ccc([N+](=O)[O-])cc2s1)c1ccc(S(=O)(=O)N2CCCc3ccccc32)cc1 . Reported inhibition?
(A) 21.1

(Q) Item under review: Cc1cc(C(=O)CSc2nc(N)cc(=O)[nH]2)c(C)n1CCc1ccc(Cl)cc1 . Reported inhibition?
(A) 43.7

(Q) Item under review: O=C(NC(Nc1nc2ccc([N+](=O)[O-])cc2s1)(C(F)(F)F)C(F)(F)F)c1ccccc1 . Reported inhibition?
(A) 92.4

(Q) Item under review: CCc1ccc2oc(-c3ccc(N)cc3)nc2c1 . Reported inhibition?
(A) 79.6

(Q) Item under review: COc1ccc(NC(=O)c2cc3nc(-c4ccccc4)cc(C)n3n2)cc1OC . Reported inhibition?
(A) 17.9

(Q) Item under review: CCOC(=O)N1CCC(NC(=O)C(NS(=O)(=O)c2ccc3c(c2)CCN3C(=O)CC)C(C)C)CC1 (stereo unspecified) . Reported inhibition?
(A) 8.6
